- Experiment Description: Plasma pharmacokinetics of DT2216 in patients, phase 1 dose escalation
- Format: in vivo, human
- Protocol Conditions: human, plasma, iv, 0.04 mg/kg, Cycle 1 Day 22, 0.04 mg/kg IV BIW, plasma, mean (CV%), N = 1; read-out: Cmax
Quantity Kind: Cmax (ng/mL)

Cc1ncsc1-c1ccc([C@H](C)NC(=O)[C@@H]2C[C@@H](O)CN2C(=O)[C@@H](NC(=O)CCCCCC(=O)N2CCN(CC[C@H](CSc3ccccc3)Nc3ccc(S(=O)(=O)NC(=O)c4ccc(N5CCN(CC6=C(c7ccc(Cl)cc7)CCC(C)(C)C6)CC5)cc4)cc3S(=O)(=O)C(F)(F)F)CC2)C(C)(C)C)cc1 [DT2216]	541

---

- Experiment Description: Plasma pharmacokinetics of DT2216 in patients, phase 1 dose escalation
- Type: in vivo, human
- Protocol Conditions: human, plasma, iv, 0.24 mg/kg, Cycle 1 Day 22, 0.24 mg/kg IV BIW, plasma, mean (CV%), N = 6; read-out: AUC0−∞
Quantity Kind: AUC(0-inf) (ng·h/mL)

Cc1ncsc1-c1ccc([C@H](C)NC(=O)[C@@H]2C[C@@H](O)CN2C(=O)[C@@H](NC(=O)CCCCCC(=O)N2CCN(CC[C@H](CSc3ccccc3)Nc3ccc(S(=O)(=O)NC(=O)c4ccc(N5CCN(CC6=C(c7ccc(Cl)cc7)CCC(C)(C)C6)CC5)cc4)cc3S(=O)(=O)C(F)(F)F)CC2)C(C)(C)C)cc1 [DT2216]	30100

---

- Experiment Description: Plasma pharmacokinetics of DT2216 in patients, phase 1 dose escalation
- Assay type: in vivo, human
- Protocol Conditions: human, plasma, iv, 0.08 mg/kg, Cycle 1 Day 22, 0.08 mg/kg IV BIW, plasma, mean (CV%), N = 1; read-out: CL (converted)
- Method: Dose escalation consisted of the administration of DT2216 intravenously twice weekly at several different doses outlined in protocol attached. The starting dose was 0.04 mg/kg, established based on pre-clinical toxicity studies. Safety was evaluated using CTCAE version 5.0. […] Patients were allowed a maximum of two intra-patient dose escalations. […] The extent of disease was evaluated using imaging studies and disease-appropriate tumor markers every 8 weeks from day 1 of the first cycle. […]
Quantity Kind: clearance (mL/min/kg)

Cc1ncsc1-c1ccc([C@H](C)NC(=O)[C@@H]2C[C@@H](O)CN2C(=O)[C@@H](NC(=O)CCCCCC(=O)N2CCN(CC[C@H](CSc3ccccc3)Nc3ccc(S(=O)(=O)NC(=O)c4ccc(N5CCN(CC6=C(c7ccc(Cl)cc7)CCC(C)(C)C6)CC5)cc4)cc3S(=O)(=O)C(F)(F)F)CC2)C(C)(C)C)cc1	0.114

---

- Experiment Description: Plasma pharmacokinetics of DT2216 in patients, phase 1 dose escalation
- Type: in vivo, human
- Protocol Conditions: human, plasma, iv, 0.32 mg/kg, Cycle 1 Day 1, 0.32 mg/kg IV, plasma, mean (CV%), N = 5; read-out: Vdss
Quantity Kind: Vd (L/kg)

Cc1ncsc1-c1ccc([C@H](C)NC(=O)[C@@H]2C[C@@H](O)CN2C(=O)[C@@H](NC(=O)CCCCCC(=O)N2CCN(CC[C@H](CSc3ccccc3)Nc3ccc(S(=O)(=O)NC(=O)c4ccc(N5CCN(CC6=C(c7ccc(Cl)cc7)CCC(C)(C)C6)CC5)cc4)cc3S(=O)(=O)C(F)(F)F)CC2)C(C)(C)C)cc1	0.0683

---

- Experiment Description: Plasma pharmacokinetics of DT2216 in patients, phase 1 dose escalation
- Type: in vivo, human
- Protocol Conditions: human, plasma, iv, 0.08 mg/kg, Cycle 1 Day 1, 0.08 mg/kg IV, plasma, mean (CV%), N = 1; read-out: Cmax
Quantity Kind: Cmax (ng/mL)

Cc1ncsc1-c1ccc([C@H](C)NC(=O)[C@@H]2C[C@@H](O)CN2C(=O)[C@@H](NC(=O)CCCCCC(=O)N2CCN(CC[C@H](CSc3ccccc3)Nc3ccc(S(=O)(=O)NC(=O)c4ccc(N5CCN(CC6=C(c7ccc(Cl)cc7)CCC(C)(C)C6)CC5)cc4)cc3S(=O)(=O)C(F)(F)F)CC2)C(C)(C)C)cc1 [DT2216]	1450

---

- Experiment Description: Plasma pharmacokinetics of DT2216 in patients, phase 1 dose escalation
- Type: in vivo, human
- Protocol Conditions: human, plasma, iv, 0.12 mg/kg, Cycle 1 Day 1, 0.12 mg/kg IV, plasma, mean (CV%), N = 1; read-out: Cmax
Quantity Kind: Cmax

Cc1ncsc1-c1ccc([C@H](C)NC(=O)[C@@H]2C[C@@H](O)CN2C(=O)[C@@H](NC(=O)CCCCCC(=O)N2CCN(CC[C@H](CSc3ccccc3)Nc3ccc(S(=O)(=O)NC(=O)c4ccc(N5CCN(CC6=C(c7ccc(Cl)cc7)CCC(C)(C)C6)CC5)cc4)cc3S(=O)(=O)C(F)(F)F)CC2)C(C)(C)C)cc1	3.71 µg/mL

---

- Experiment Description: Plasma pharmacokinetics of DT2216 in patients, phase 1 dose escalation
- Type: in vivo, human
- Protocol Conditions: human, plasma, iv, 0.12 mg/kg, Cycle 1 Day 1, 0.12 mg/kg IV, plasma, mean (CV%), N = 1; read-out: AUClast
Quantity Kind: AUC(0-t) (ng·h/mL)

Cc1ncsc1-c1ccc([C@H](C)NC(=O)[C@@H]2C[C@@H](O)CN2C(=O)[C@@H](NC(=O)CCCCCC(=O)N2CCN(CC[C@H](CSc3ccccc3)Nc3ccc(S(=O)(=O)NC(=O)c4ccc(N5CCN(CC6=C(c7ccc(Cl)cc7)CCC(C)(C)C6)CC5)cc4)cc3S(=O)(=O)C(F)(F)F)CC2)C(C)(C)C)cc1	17900

---

- Experiment Description: Plasma pharmacokinetics of DT2216 in patients, phase 1 dose escalation
- Type: in vivo, human
- Protocol Conditions: human, plasma, iv, 0.24 mg/kg, Cycle 1 Day 1, 0.24 mg/kg IV, plasma, mean (CV%), N = 7; read-out: T½ (converted)
Quantity Kind: half-life (h)

Cc1ncsc1-c1ccc([C@H](C)NC(=O)[C@@H]2C[C@@H](O)CN2C(=O)[C@@H](NC(=O)CCCCCC(=O)N2CCN(CC[C@H](CSc3ccccc3)Nc3ccc(S(=O)(=O)NC(=O)c4ccc(N5CCN(CC6=C(c7ccc(Cl)cc7)CCC(C)(C)C6)CC5)cc4)cc3S(=O)(=O)C(F)(F)F)CC2)C(C)(C)C)cc1	10.4

---

- Experiment Description: Plasma pharmacokinetics of DT2216 in patients, phase 1 dose escalation
- Format: in vivo, human
- Protocol Conditions: human, plasma, iv, 0.12 mg/kg, Cycle 1 Day 1, 0.12 mg/kg IV, plasma, mean (CV%), N = 1; read-out: AUC0−∞
Quantity Kind: AUC(0-inf) (ng·h/mL)

Cc1ncsc1-c1ccc([C@H](C)NC(=O)[C@@H]2C[C@@H](O)CN2C(=O)[C@@H](NC(=O)CCCCCC(=O)N2CCN(CC[C@H](CSc3ccccc3)Nc3ccc(S(=O)(=O)NC(=O)c4ccc(N5CCN(CC6=C(c7ccc(Cl)cc7)CCC(C)(C)C6)CC5)cc4)cc3S(=O)(=O)C(F)(F)F)CC2)C(C)(C)C)cc1 [DT2216]	18000

---

- Experiment Description: Plasma pharmacokinetics of DT2216 in patients, phase 1 dose escalation
- Type: in vivo, human
- Protocol Conditions: human, plasma, iv, 0.32 mg/kg, Cycle 1 Day 22, 0.32 mg/kg IV BIW, plasma, mean (CV%), N = 5; read-out: AUClast
Quantity Kind: AUC(0-t) (ng·h/mL)

Cc1ncsc1-c1ccc([C@H](C)NC(=O)[C@@H]2C[C@@H](O)CN2C(=O)[C@@H](NC(=O)CCCCCC(=O)N2CCN(CC[C@H](CSc3ccccc3)Nc3ccc(S(=O)(=O)NC(=O)c4ccc(N5CCN(CC6=C(c7ccc(Cl)cc7)CCC(C)(C)C6)CC5)cc4)cc3S(=O)(=O)C(F)(F)F)CC2)C(C)(C)C)cc1	32900

---

- Experiment Description: Plasma pharmacokinetics of DT2216 in patients, phase 1 dose escalation
- Type: in vivo, human
- Protocol Conditions: human, plasma, iv, 0.08 mg/kg, Cycle 1 Day 22, 0.08 mg/kg IV BIW, plasma, mean (CV%), N = 1; read-out: AUC0−∞
- Protocol: Dose escalation consisted of the administration of DT2216 intravenously twice weekly at several different doses outlined in protocol attached. The starting dose was 0.04 mg/kg, established based on pre-clinical toxicity studies. Safety was evaluated using CTCAE version 5.0. […] Patients were allowed a maximum of two intra-patient dose escalations. […] The extent of disease was evaluated using imaging studies and disease-appropriate tumor markers every 8 weeks from day 1 of the first cycle. […]
Quantity Kind: AUC(0-inf) (ng·h/mL)

Cc1ncsc1-c1ccc([C@H](C)NC(=O)[C@@H]2C[C@@H](O)CN2C(=O)[C@@H](NC(=O)CCCCCC(=O)N2CCN(CC[C@H](CSc3ccccc3)Nc3ccc(S(=O)(=O)NC(=O)c4ccc(N5CCN(CC6=C(c7ccc(Cl)cc7)CCC(C)(C)C6)CC5)cc4)cc3S(=O)(=O)C(F)(F)F)CC2)C(C)(C)C)cc1 [DT2216]	11700
